biological target: human recombinant HPK1 (Homo sapiens, UniProt Q92918); assay: Inhibitory activity against human recombinant HPK1 (TR-FRET); settings: ULight-p70S6K peptide, ATP at Km, room temperature, 1 hour, 0.32 to 1000 nM compound
Sequence (Q92918 whole entry): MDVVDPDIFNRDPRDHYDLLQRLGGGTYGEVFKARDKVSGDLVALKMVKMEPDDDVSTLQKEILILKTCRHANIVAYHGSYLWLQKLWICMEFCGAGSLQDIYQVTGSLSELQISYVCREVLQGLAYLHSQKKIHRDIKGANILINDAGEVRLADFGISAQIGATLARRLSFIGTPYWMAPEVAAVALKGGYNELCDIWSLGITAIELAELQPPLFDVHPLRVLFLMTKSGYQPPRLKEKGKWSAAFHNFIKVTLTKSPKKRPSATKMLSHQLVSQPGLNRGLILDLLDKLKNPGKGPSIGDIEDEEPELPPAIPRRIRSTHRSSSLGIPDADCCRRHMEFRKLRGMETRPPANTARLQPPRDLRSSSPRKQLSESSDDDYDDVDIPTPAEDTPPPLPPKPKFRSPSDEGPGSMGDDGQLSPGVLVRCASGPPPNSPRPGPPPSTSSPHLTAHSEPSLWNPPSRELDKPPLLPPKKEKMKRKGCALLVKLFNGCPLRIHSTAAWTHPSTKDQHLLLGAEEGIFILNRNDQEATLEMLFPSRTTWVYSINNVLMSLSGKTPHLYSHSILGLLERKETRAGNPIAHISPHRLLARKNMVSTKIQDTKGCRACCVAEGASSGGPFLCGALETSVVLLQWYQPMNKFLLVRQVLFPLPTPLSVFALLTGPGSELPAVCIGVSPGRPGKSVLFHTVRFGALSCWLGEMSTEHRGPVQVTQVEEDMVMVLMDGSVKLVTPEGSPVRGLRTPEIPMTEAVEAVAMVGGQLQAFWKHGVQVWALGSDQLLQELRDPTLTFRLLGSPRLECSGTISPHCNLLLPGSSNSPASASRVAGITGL
pIC50: −log10 of the molar value. Where a name gives a salt, the structure may show the parent alone.
Items are presented alongside their recorded pIC50.

molecule: COc1cc(F)cc(F)c1-c1nccc(Nc2cc(N3CCC[C@H](N)C3)c(C#Cc3cnn(C(F)(F)F)c3)cn2)n1 [Example 159, hydrochloride]
pIC50: ≥ 8.00

molecule: COc1cccc(F)c1-c1nc(Nc2cc(N3CCC[C@H](N)C3)c(-c3cnn(C(F)F)c3)cn2)ccc1F [Example 76, hydrochloride]
pIC50: ≥ 8.00

molecule: COc1cccc(F)c1-c1nccc(Nc2cc(N3CCC[C@H](O)C3)c(-c3ccc(C4CCOCC4)nc3)cn2)n1
pIC50: ≥ 8.00

molecule: COc1cccc(F)c1-c1nc(Nc2cc(N3CCC[C@H](O)C3)c(-c3cnn(C(F)F)c3)cn2)ccc1C(=O)N(C)C
pIC50: < 7.00

molecule: COc1cccc(F)c1-c1nccc(Nc2cc(N3CCC[C@H](N)C3)c(-c3cnn(CC(=O)N(C)C)c3)cn2)n1 [Example 132, hydrochloride]
pIC50: ≥ 8.00

molecule: COc1cccc(F)c1-c1nccc(Nc2cc(N3CCC[C@H](O)C3)c(-c3ccc(CN4CCC(O)CC4)nc3)cn2)n1
pIC50: 7.30 to 8.00
